Ref: the Kinase Knowledgebase extract (Sharma et al. 2016)

# maps each entry to its IC50
biological target: MAPK14 (human); assay: p38-mediated TNF-alpha Inhibition (LPS-Stimulated PBMCs); details: pbmc
Answer with the figure and its unit, nothing else.

O=C1NCN2N=C(Sc3ccc(F)cc3)C=CC2=C1c1c(Cl)cccc1Cl : 390 nM
COC(=O)c1ccccc1Sc1ccc2c(-c3c(Cl)cccc3Cl)c(=O)ncn2n1 : 370 nM

Now consider the entry below.
QUERY: Reported IC50 for `Cc1ccccc1SC1=NN2CNC(=O)C(c3c(Cl)cccc3Cl)=C2C=C1` : what is it?
RESULT: 210 nM

---

target: UniProtKB P24941; test: Enzyme Assay
pIC50: −log10 of the molar value.
# cutoff 6 applies to pIC50; >= gives Y, < gives N

COc1cc(OC)c(/C=C/S(=O)(=O)Cc2ccc(OC)c(NC(C)C(=O)O)c2)c(OC)c1 (stereo not given) : N

QUERY: Does the reported pIC50 for COC/C=C/c1c(C2CCCNC2)nc2c(-c3cnn(C)c3)cnn2c1N (stereo not given) fall at or above the 6 mark?
RESULT: N

QUERY: Does the reported pIC50 for `NC1=NC(=O)/C(=C2\CCNC(=O)c3[nH]c(Br)cc32)N1` fall at or above the 6 mark?
RESULT: Y

QUERY: Does the reported pIC50 for Cn1cc(-c2cnn3c(N)c(-c4ccoc4)c(C4CCCNC4)nc23)cn1 (stereo not given) fall at or above the 6 mark?
RESULT: N

QUERY: Does the reported pIC50 for `CCn1c(-c2nonc2N)nc2cnc(Oc3cccc(NC(C)=O)c3)cc21` fall at or above the 6 mark?
RESULT: N

QUERY: Does the reported pIC50 for `C=CCn1c(=O)c2cnc(Nc3ccc(OCCN(CC)CC)cc3)nc2n(C(C)C)c1=O` fall at or above the 6 mark?
RESULT: N

QUERY: Does the reported pIC50 for `O=C1Nc2ccccc2/C1=C1/Nc2ccccc2C1=O` fall at or above the 6 mark?
RESULT: N

QUERY: Does the reported pIC50 for `O=c1c(Br)cc2cnc(Nc3ccc(N4CCNCC4)cc3)nc2n1C1CCCC1` fall at or above the 6 mark?
RESULT: Y

QUERY: Does the reported pIC50 for `CCN(CC)CCNC(=O)c1ccc(Nc2cc(-c3cccc(F)c3)n3ncnc3n2)cc1` fall at or above the 6 mark?
RESULT: N
